Tested on: MDA-N
assayNotes: NCI tumour cell line growth inhibition, 48 h
Consider the following compounds; for each one, report its TGI.
Field format: number, assumed µM, no unit text.

[ask] Using the record for CC(C)(C)c1ccc2c(c1)CNCCNCc1cc(C(C)(C)C)ccc1OCC1(CO2)COc2ccc(C(C)(C)C)cc2CNCCNCc2cc(C(C)(C)C)ccc2OC1 , report its TGI.
[reply] 2.14

[ask] Using the record for CC(=O)OCC(C)C1=C(O)C(=O)C2(C)C/C=C(/C)CC/C=C(\C)CCC(O)C(C)CCC12 (configuration not stated) , report its TGI.
[reply] 33.6

[ask] Using the record for Cc1nnc2n1N=C(c1cc(F)c(Cl)cc1Cl)/C(=C/c1ccc(Cl)cc1)S2 , report its TGI.
[reply] 35.4

[ask] Using the record for Brc1ccc(CCNCCN2CCCCC2)cc1 , report its TGI.
[reply] 23.8

====

Test system: CCRF-CEM leukemia
assayNotes: NCI tumour cell line growth inhibition, 48 h
// label = Satisfied if TGI is not less than 8 µM, otherwise Not satisfied

[ask] In plain terms: is recorded TGI at least 8 µM for O=C(CI)NC1Oc2ccccc2-c2oc(=O)c(-c3ccccc3)cc21 (configuration not stated) ?
[reply] Satisfied

[ask] In plain terms: is recorded TGI at least 8 µM for Nc1ccc2nc(-c3ccccn3)c(-c3ccccn3)nc2c1 ?
[reply] Satisfied

[ask] In plain terms: is recorded TGI at least 8 µM for O=C1C(Cl)=C(N2CCN(C3=C(Cl)C(=O)c4ccccc4C3=O)CC2)C(=O)c2ccccc21 ?
[reply] Not satisfied

[ask] In plain terms: is recorded TGI at least 8 µM for CN1CCN(Cc2ccc(NC(=O)c3cncc(C#Cc4cnc(N)c5ccc(C#N)cc45)c3)cc2C(F)(F)F)CC1 ?
[reply] Not satisfied

[ask] In plain terms: is recorded TGI at least 8 µM for O=C1/C(=C/c2ccc(Cl)cc2Cl)N=C(c2ccccc2)N1Cc1ccco1 ?
[reply] Not satisfied

[ask] In plain terms: is recorded TGI at least 8 µM for Nc1cc(CO)cc(Nc2nc3ccc(Cl)cc3c3[nH]c4ccccc4c23)c1 ?
[reply] Satisfied

[ask] In plain terms: is recorded TGI at least 8 µM for COC(=O)CCCCN=Cc1c(O)c(O)c(C(C)C)c2cc(C)c(-c3c(C)cc4c(C(C)C)c(O)c(O)c(C=NCCCCC(=O)OC)c4c3O)c(O)c12 ?
[reply] Satisfied

[ask] In plain terms: is recorded TGI at least 8 µM for CC(=O)Nc1ccccc1Sc1ccccc1 ?
[reply] Satisfied

[ask] In plain terms: is recorded TGI at least 8 µM for NC(C(F)(F)F)(C(F)(F)F)P(=O)(Cc1ccccc1)Cc1ccccc1 ?
[reply] Satisfied

[ask] In plain terms: is recorded TGI at least 8 µM for CCOC(=O)c1csc(NC(=O)CCN(CC)CC)n1 ?
[reply] Satisfied

[ask] In plain terms: is recorded TGI at least 8 µM for CC(C)c1ccc2[nH]c(O)c(-c3[nH]c4ccccc4c3N=O)c2c1 ?
[reply] Satisfied

[ask] In plain terms: is recorded TGI at least 8 µM for O=C1c2c(c3c4ccccc4n(CCCCCCBr)c3c3[nH]c4ccccc4c23)C(=O)N1O ?
[reply] Not satisfied

====

Tested on: SK-MEL-2 melanoma
assayNotes: NCI tumour cell line growth inhibition, 48 h
Consider the following molecules; for each one, report its TGI.
Field format: number, assumed µM, no unit text.

[ask] Please tell me: TGI of CC(=O)OCC(C)C1=C(O)C(=O)C2(C)C/C=C(/C)CC/C=C(\C)CCC(O)C(C)CCC12 (stereo not given) , system SK-MEL-2 melanoma?
[reply] 39.3

[ask] Please tell me: TGI of C[C@]12CC[C@@H]3c4ccc(O)cc4CC[C@H]3[C@@H]1C/C(=C\c1ccncc1)C2=O , system SK-MEL-2 melanoma?
[reply] 48.7
